# System: Schistosoma mansoni schistosomula (LE)
# run_description: XTT viability relative to DMSO control; higher = more viable (less active)
# assay_setup: 72 h; 10 µM
Entries and their XTT viability

compound	readout_unit	XTT viability
c1cc(C2=NCCN2)cc(-c2cc(-c3ccc(C4=NCCN4)cc3)no2)c1	%	115
O=C(C(Cc1c[nH]c2ccccc12)NS(=O)(=O)c1ccc(Cl)cc1)N1CCCCC1 (stereo not given)	%	96.4
O=C(OCc1ccccc1)N1CCC(c2cc(-c3ccncc3)c(-c3ccc(F)cc3)[nH]2)CC1	%	124
OCCc1ccc(Nc2nccc(-c3nnc4ccccn34)n2)cc1	%	109
CC(c1cc(Cl)cc(Cl)c1)N(C)c1ncc2c(N)nc(N)nc2n1 (stereo not given)	%	42.2
